The measurements presented in this section are drawn from PubChem BioAssay AID1259407.

Tested on: CCRIS mutagenicity, Ames/micronucleus/aberration tests
Experiment: CCRIS mutagenicity studies
Conditions: Test System: AMES SALMONELLA TYPHIMURIUM; Strain/Indicator: TA1537; Metabolic Activation: HAMSTER, LIVER, S-9, AROCLOR 1254; Method: PREINCUBATION
Text: The CCRIS database contains chemical records with carcinogenicity, mutagenicity, tumor promotion, and tumor inhibition test results. It was developed by the National Cancer Institute (NCI). Data are derived from studies cited in primary journals, current awareness tools, NCI reports, and other sources. Test results have been reviewed by experts in carcinogenesis and mutagenesis. CCRIS provides historical information from the years 1985 - 2011. It is no longer updated. […]
The source made the active and inactive calls. How the calls were made is not given here.
Parameter call: string, one of active, inactive

Use the examples below as a reference point.
>>> category_label("CCCCOB(OCCCC)OCCCC")
"inactive"
>>> category_label("CC(C)(C#N)N=NC(C)(C)C#N")
"inactive"
>>> category_label("C(=C/c1ccccc1)/c1ccccc1")
"inactive"
>>> category_label("CC(I)C1OCC(CO)O1 (configuration not stated)")
"inactive"
>>> category_label("Cc1cc(=O)oc2cc(O)cc(O)c12")
"inactive"

**Query** Tell me the recorded outcome of this test for O=C1CCc2ccccc2O1 .
**Result** inactive

**Query** Also Brc1c(Br)c(Br)c(Br)c(Br)c1Br , if possible.
**Result** inactive

**Query** Also CCCCCC[C@@H](O)C/C=C\CCCCCCCC(=O)O , if possible.
**Result** inactive

**Query** Also Nc1nc(N)nc(N)n1 , if possible.
**Result** inactive
